The molecules below have reported pIC50 for Dyrk1B (Homo sapiens, UniProt Q9Y463).
Field pIC50 (float): negative decimal logarithm of the concentration in molar.

Ask: Enter reported pIC50 observed with Dyrk1B (Homo sapiens, UniProt Q9Y463) for O=C(NCc1cc(F)cc(F)c1)c1cc2cc(O)ccc2s1 [Compound 17]
Sequence (Q9Y463 whole entry): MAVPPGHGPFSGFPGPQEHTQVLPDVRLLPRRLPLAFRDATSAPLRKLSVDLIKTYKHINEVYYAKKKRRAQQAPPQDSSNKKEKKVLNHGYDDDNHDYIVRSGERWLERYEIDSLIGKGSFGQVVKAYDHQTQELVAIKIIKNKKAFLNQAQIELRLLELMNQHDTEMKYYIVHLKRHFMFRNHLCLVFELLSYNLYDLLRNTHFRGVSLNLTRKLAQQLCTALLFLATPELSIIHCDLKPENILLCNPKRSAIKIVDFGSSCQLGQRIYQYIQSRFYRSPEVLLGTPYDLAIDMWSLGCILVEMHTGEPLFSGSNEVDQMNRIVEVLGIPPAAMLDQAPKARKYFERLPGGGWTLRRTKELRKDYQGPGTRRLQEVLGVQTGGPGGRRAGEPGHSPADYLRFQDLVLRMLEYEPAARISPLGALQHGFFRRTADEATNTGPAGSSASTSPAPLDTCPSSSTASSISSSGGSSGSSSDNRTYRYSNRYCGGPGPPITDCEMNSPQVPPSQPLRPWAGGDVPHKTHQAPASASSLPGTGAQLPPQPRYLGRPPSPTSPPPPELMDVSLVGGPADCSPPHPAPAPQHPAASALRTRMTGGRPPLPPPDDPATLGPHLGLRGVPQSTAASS
Result: 6.62

Ask: Form entry - test system: Dyrk1B (Homo sapiens, UniProt Q9Y463); read-out: pIC50; molecule: O=C(NCc1ccccc1F)c1cc2cc(O)ccc2s1 [Compound 5]
Result: 6.14

Ask: Kindly state the measured pIC50 obtained for O=C(NCc1cccc(Cl)c1)c1cc2cc(O)ccc2s1 [Compound 3] with Dyrk1B (Homo sapiens, UniProt Q9Y463).
Result: 6.28

New cases:
Ask: Recall the recorded pIC50 for O=C(NCc1ccccc1)c1cc2cc(O)ccc2s1 [Compound 1] with Dyrk1B (Homo sapiens, UniProt Q9Y463) and state it.
Result: 6.08
